Every entry's value here was drawn from patent US11220491B2.

Test: CellTiter-Glo cell viability assay (Example 9)
Format: cell-based
Conditions: human; after 24-hour treatment; read-out: inhibition of cell viability
experimentalEndpoint: cytotoxicity at 24 h (%)
One number for each entry, in %.

Documented cytotoxicity at 24 h of CN[C@@H]1C[C@H]2O[C@@](C)([C@@H]1OC)n1c3ccccc3c3c4c(c5c6ccccc6n2c5c31)C(=O)NC4 [Staurosporine, reference compound] : 100

---

Molecular target: arylhydrocarbon receptor (AhR) (Homo sapiens)
Experiment: HepG2-AhR-Luciferase assay
experimentalEndpoint: EC50 (µM)
Give bare numbers, in µM.

Documented EC50 of Cc1ccc2cc3c(ccc4ccccc43)c3c2c1CC3 [Compound 3-MC, 3-methylcholanthrene, reference compound] : 4.34

---

Biological target: arylhydrocarbon receptor (AhR) (Homo sapiens)
Assay: HepG2-AhR-Luciferase assay
Details: EC50 (uM), Table 2; 24 hours of treatment
experimentalEndpoint: EC50 (µM)
Numbers only, in µM.

Completed entries (count: 10):
COC(=O)c1c(C(C)c2c[nH]c3ccccc23)[nH]c2ccccc12 (centres unmarked) : 13.8
c1ccc2c(c1)[nH]c1cc3c(cc12)[nH]c1ccccc13 [CV-8685, indolo[3,2-b] carbazole] : 15.2
Cc1ccc2c(c1)[nH]c1cc3c(cc12)[nH]c1ccccc13 : 33.6
COC(c1[nH]c2ccccc2c1C=O)c1c[nH]c2ccccc12 (centres unmarked) : 11.6
c1ccc2[nH]c(Cc3c[nH]c4ccccc34)cc2c1 : 37.3
c1ccc2c(C(c3c[nH]c4ccccc34)C3CC3)c[nH]c2c1 : 14.9
O=Cc1c(Cc2c[nH]c3ccccc23)[nH]c2ccccc12 : 13.4
CC(c1[nH]c2ccccc2c1C(=O)O)c1c[nH]c2ccccc12 (centres unmarked) : 4.29
O=Cc1c(C(c2c[nH]c3ccccc23)C2CC2)[nH]c2ccccc12 (centres unmarked) : 14.2
COC(=O)c1c(C(c2c[nH]c3ccccc23)C2CC2)[nH]c2ccccc12 (centres unmarked) : 13.7

Field: EC50. Fill in for each record below.
1. CC(c1[nH]c2ccccc2c1C=O)c1c[nH]c2ccccc12 (centres unmarked)
2. O=Cc1c(C(=O)c2c[nH]c3ccccc23)[nH]c2ccccc12
3. O=C(Cc1c[nH]c2ccccc12)Cc1c[nH]c2ccccc12
4. Cc1ccc2c(c1)[nH]c1c(C)c3c(cc12)[nH]c1ccccc13

[13.4, 4.11, 16.5, 3.93]

---

Biological target: arylhydrocarbon receptor (AhR) (Homo sapiens, UniProt P35869)
Sequence (P35869 11-848): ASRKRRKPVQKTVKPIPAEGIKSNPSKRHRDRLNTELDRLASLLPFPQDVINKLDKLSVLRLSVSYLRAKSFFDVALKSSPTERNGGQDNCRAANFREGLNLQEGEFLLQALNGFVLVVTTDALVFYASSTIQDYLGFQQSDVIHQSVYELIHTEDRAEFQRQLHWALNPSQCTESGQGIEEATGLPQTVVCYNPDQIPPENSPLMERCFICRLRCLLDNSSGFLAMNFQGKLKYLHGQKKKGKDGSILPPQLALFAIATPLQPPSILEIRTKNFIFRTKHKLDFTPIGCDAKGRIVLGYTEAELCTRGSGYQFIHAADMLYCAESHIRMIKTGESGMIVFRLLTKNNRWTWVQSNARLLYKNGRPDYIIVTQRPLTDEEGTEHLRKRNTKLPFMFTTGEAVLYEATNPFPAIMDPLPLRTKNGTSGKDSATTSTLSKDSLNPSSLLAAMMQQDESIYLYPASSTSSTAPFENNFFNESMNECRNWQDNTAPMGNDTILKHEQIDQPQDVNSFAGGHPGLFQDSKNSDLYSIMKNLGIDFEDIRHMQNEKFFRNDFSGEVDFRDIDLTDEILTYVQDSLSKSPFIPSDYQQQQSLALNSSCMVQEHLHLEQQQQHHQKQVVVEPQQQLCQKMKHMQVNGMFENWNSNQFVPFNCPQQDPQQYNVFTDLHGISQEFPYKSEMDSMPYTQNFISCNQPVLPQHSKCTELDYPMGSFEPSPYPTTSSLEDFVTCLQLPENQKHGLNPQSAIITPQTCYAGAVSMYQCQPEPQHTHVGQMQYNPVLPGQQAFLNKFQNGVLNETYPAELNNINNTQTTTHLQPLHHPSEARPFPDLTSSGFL
Test: HepG2-AhR-Luciferase assay
Details: EC50 (uM), Table 2; 24 hours of treatment
experimentalEndpoint: EC50 (µM)
Answers are plain numbers, in µM.

Completed entries (count: 2):
Cc1ccc2c(Cc3[nH]c4ccccc4c3C=O)c[nH]c2c1 : 5.45
O=C(c1c[nH]c2ccccc12)c1nccc2c1[nH]c1ccccc12 : 3.46

Documented EC50 of O=C[C@@H]1Cc2c([nH]c3ccccc23)[C@@H](c2c[nH]c3ccccc23)CN1 : 35.8
